Data provenance is the supplement of paper PMC11281043.

Below: a set of entries, each annotated with reported max % larvae.
Tested on: Danio rerio embryo/larva
Experiment: max % larvae with abnormal position across tested concentrations; higher = more toxic; extreme values may be limits of the assay
Conditions: exposure: 6-8 hpf to 5 dpf, scored at 6 dpf
Kindly answer with a numeric value in %, unit omitted.

compound	experimental-value
C=C(C)C(=O)OCC(F)(F)C(F)(F)C(F)(F)C(F)(F)C(F)(F)C(F)(F)C(F)(F)F [(Perfluoroheptyl)methyl methacrylate] (max tested concentration (log10 uM): 1.60206)	0
OCCC(F)(F)C(F)(F)C(F)(F)C(F)(F)F [4:2 Fluorotelomer alcohol] (max tested concentration (log10 uM): 2)	0

Let us move to another entry and its max % larvae.
Could you tell me which max % larvae is on file for NS(=O)(=O)C(F)(F)C(F)(F)C(F)(F)C(F)(F)C(F)(F)C(F)(F)F [Perfluorohexanesulfonamide] (max tested concentration (log10 uM): 0.477121) ? 30
